The origin of these recorded values is PubChem BioAssay (NCI).

Tested on: EKVX NSCLC
Assay: NCI tumour cell line growth inhibition, 48 h

molecule | study_target | result_qualifier | TGI (µM)
COc1cnc2c(c1)C(=O)c1c-2n(CCCNC(C)C)c(=O)c2cc([N+](=O)[O-])ccc12 | EKVX NSCLC | = | 0.706
O=c1/c(=C/c2ccc([N+](=O)[O-])o2)sc2n1[C@@H](c1ccc3c(c1)OCO3)C=C(c1cc(F)c(Cl)cc1Cl)N=2 | EKVX NSCLC | = | 32.7
CCO/C=C(\C(=O)OC)S(=O)(=O)c1ccc(C)cc1 | EKVX NSCLC | > | 100
Cc1cc(N(CCOS(C)(=O)=O)CCOS(C)(=O)=O)ccc1C=Nc1ccc(-c2csc(-c3ccc(Br)cc3)n2)cc1 | EKVX NSCLC | = | 37.7
COc1cc(C)c(NC(=O)CN(C)C)cc1Nc1nc(Nc2cccc(F)c2C(N)=O)c2cc[nH]c2n1 | EKVX NSCLC | = | 12.5
CC1(O)Oc2ccc3ccccc3c2C=C1C(N)=O (stereo not given) | EKVX NSCLC | > | 100
CC(C)NC(=O)OCc1c(COC(=O)NC(C)C)c(-c2ccc[n+](COC(=O)C(C)(C)C)c2)n2c1CCC2 | EKVX NSCLC | > | 100
CCOC(=O)NC1CC2CCC1(OC)C=C2C (stereo not given) | EKVX NSCLC | > | 100
Cc1cn(C2CC(NC(=NCC3OC(n4cnc5c(N)ncnc54)CC3O)NC#N)C(CO)O2)c(=O)[nH]c1=O (stereo not given) | EKVX NSCLC | > | 100
c1ccc2c(c1)[nH]c1c2ncc2[nH]c3ccccc3c21 | EKVX NSCLC | = | 33.1
COC(=O)[C@@H]1OC(C)(c2ccccc2)O[C@H]1C(=O)OC | EKVX NSCLC | > | 100
O=C(OCc1ccccc1)N1CCCc2c(n(S(=O)(=O)c3ccccc3)c3ccccc23)C1 | EKVX NSCLC | > | 100
O=C(/C=C/c1ccc2c(c1)OCO2)CC(=O)/C=C/c1ccc2c(c1)OCO2 | EKVX NSCLC | > | 100
CC#CC(=O)N1CC[C@@H](n2c(=O)n(-c3ccc(Oc4ccccc4)cc3)c3c(N)ncnc32)C1 | EKVX NSCLC | > | 100
Fc1c(F)c(C(F)(F)F)c(F)c(F)c1N/N=C/c1cn(Cc2ccccc2)c2ccccc12 | EKVX NSCLC | = | 43
CC(=O)[O][Bi]([c]1ccccc1)[c]1ccccc1 | EKVX NSCLC | = | 34.5
COc1ccc(C2C(C=O)C(N3CCN(C)CC3)=Nc3nc4ccccc4n32)cc1 (stereo not given) | EKVX NSCLC | = | 97.3
O=C1OC(CS(=O)(=O)c2ccccc2)CC1O (stereo not given) | EKVX NSCLC | > | 100
CCC1=[N+]([O-])C(C)(C)NC1(C)C | EKVX NSCLC | > | 10
N#CCc1nc(-c2cc3c(ccc4ccccc43)oc2=O)cs1 | EKVX NSCLC | > | 100

* * *

Tested on: BT-549 breast
Experiment: NCI tumour cell line growth inhibition, 48 h
readout_type: TGI (µM)

compound | readout_type | result_qualifier | endpoint_value
O=c1c2cc(S(=O)(=O)Nc3c(Cl)cccc3Cl)ccc2ncn1NS(=O)(=O)c1ccc2ccccc2c1 | TGI | > | 62.5
COc1cc2c(cc1OCCCN1CCN(c3ncnc4ccccc34)CC1)N=CC1CCCN1C2=O (stereo not given) | TGI | = | 0.0895
Nc1ccccc1C#Cc1ccccc1C#Cc1cnccn1 | TGI | = | 28.7
O=S(=O)(CCCCl)SCCCCl | TGI | = | 28.1
Cn1c(=O)c2[nH]c(CCCCc3nc4c([nH]3)c(=O)n(C)c(=S)n4C)nc2n(C)c1=S | TGI | > | 100
